Target: MER (Homo sapiens, UniProt Q12866)
Sequence (Q12866 21-999): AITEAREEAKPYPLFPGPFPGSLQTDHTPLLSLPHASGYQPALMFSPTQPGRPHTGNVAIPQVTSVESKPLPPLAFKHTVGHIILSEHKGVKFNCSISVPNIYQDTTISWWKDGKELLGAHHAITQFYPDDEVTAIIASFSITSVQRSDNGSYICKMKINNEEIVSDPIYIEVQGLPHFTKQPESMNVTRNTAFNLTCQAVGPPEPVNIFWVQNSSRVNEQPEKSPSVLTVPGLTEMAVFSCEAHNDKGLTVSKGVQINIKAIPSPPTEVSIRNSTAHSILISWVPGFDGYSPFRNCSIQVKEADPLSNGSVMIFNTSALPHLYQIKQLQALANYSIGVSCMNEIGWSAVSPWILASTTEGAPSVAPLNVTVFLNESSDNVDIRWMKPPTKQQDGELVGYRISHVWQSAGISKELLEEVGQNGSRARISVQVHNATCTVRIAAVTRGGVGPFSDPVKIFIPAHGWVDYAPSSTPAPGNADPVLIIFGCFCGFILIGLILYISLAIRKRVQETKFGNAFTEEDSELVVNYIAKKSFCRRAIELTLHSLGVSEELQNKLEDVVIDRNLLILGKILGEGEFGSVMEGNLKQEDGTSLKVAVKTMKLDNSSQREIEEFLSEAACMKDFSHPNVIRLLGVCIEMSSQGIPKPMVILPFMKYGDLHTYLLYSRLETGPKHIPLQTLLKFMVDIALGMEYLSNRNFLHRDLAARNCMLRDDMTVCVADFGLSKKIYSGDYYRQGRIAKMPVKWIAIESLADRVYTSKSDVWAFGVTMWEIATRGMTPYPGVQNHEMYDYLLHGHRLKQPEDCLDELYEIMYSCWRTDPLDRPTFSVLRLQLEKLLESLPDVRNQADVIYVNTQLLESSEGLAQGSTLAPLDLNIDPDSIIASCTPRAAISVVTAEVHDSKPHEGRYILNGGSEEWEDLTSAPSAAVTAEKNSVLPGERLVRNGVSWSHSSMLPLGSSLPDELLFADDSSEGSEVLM
Experiment: Enzymatic assay (ADP-Glo kinase reaction), MER
Type: biochemical
Settings: 10 μM ATP, 60 min, ADP-GLO luminescence
assayReadout: IC50

- smi: "CC(C)(C#Cc1c(Oc2ccc(NC(=O)c3cn(C4CCOCC4)c(=O)n(-c4ccc(F)cc4)c3=O)cc2F)ccnc1N)N1CCOCC1"
  assayReadout: "IC50"
  result: "< 100 nM"
- smi: "Cc1noc(C)c1-c1c(Oc2ccc(NC(=O)c3cn(C(C)C)c(=O)n(-c4ccc(F)cc4)c3=O)cc2F)ccnc1N"
  assayReadout: "IC50"
  result: "< 10 nM"
- smi: "Cc1nc(Cn2cc(C(=O)Nc3ccc(Oc4ccnc(N)c4C#CCC4CCN(C)CC4)c(F)c3)c(=O)n(-c3ccc(F)cc3)c2=O)cs1"
  assayReadout: "IC50"
  result: "< 10 nM"
- smi: "CN(C)C(=O)Cn1cc(C(=O)Nc2ccc(Oc3ccnc(N)c3C#CCN3CCOCC3)c(F)c2)c(=O)n(-c2ccc(F)cc2)c1=O"
  assayReadout: "IC50"
  result: "< 100 nM"
- smi: "Cc1nc(Cn2cc(C(=O)Nc3ccc(Oc4ccnc(N)c4C#CC(C)(C)N4CCN(C)CC4)c(F)c3)c(=O)n(-c3ccc(F)cc3)c2=O)cs1"
  assayReadout: "IC50"
  result: "< 100 nM"
- smi: "CC(C)n1cc(C(=O)Nc2ccc(Oc3ccnc(N)c3C#Cc3ccccn3)c(F)c2)c(=O)n(-c2ccc(F)cc2)c1=O"
  assayReadout: "IC50"
  result: "< 100 nM"
- smi: "CN1CCN(C(C)(C)C#Cc2c(Oc3ccc(NC(=O)c4cn(CC(=O)N(C)C)c(=O)n(-c5ccc(F)cc5)c4=O)cc3F)ccnc2N)CC1"
  assayReadout: "IC50"
  result: "< 1000 nM"
- smi: "CN(C)C(=O)Cn1cc(C(=O)Nc2ccc(Oc3ccnc(N)c3C#CC(C)(C)N3CCNCC3)c(F)c2)c(=O)n(-c2ccc(F)cc2)c1=O"
  assayReadout: "IC50"
  result: "< 100 nM"
- smi: "C=CCn1cc(C(=O)Nc2ccc(Oc3ccnc(N)c3C#CCN3CCOCC3)c(F)c2)c(=O)n(CC=C)c1=O"
  assayReadout: "IC50"
  result: "< 10 nM"
- smi: "Cn1nc(C(=O)Nc2ccc(Oc3ccnc(N)c3C#CC(C)(C)N3CCOCC3)c(F)c2)c(=O)n(-c2ccc(F)cc2)c1=O"
  assayReadout: "IC50"
  result: "< 1000 nM"
- smi: "CC(C)n1cc(C(=O)Nc2ccc(Oc3ccnc(N)c3C#CC(C)(C)N3CCOCC3)c(F)c2)c(=O)n(-c2ccc(F)cc2)c1=O"
  assayReadout: "IC50"
  result: "< 10 nM"
- smi: "CC(C)n1cc(C(=O)Nc2ccc(Oc3ccnc(N)c3C#CC3CCNCC3)c(F)c2)c(=O)n(-c2ccc(F)cc2)c1=O"
  assayReadout: "IC50"
  result: "< 10 nM"
- smi: "CC(C)n1cc(C(=O)Nc2ccc(Oc3ccnc(N)c3C#CC(=O)N3CCNCC3)c(F)c2)c(=O)n(-c2ccc(F)cc2)c1=O"
  assayReadout: "IC50"
  result: "< 10 nM"
